- assayDetails: Human HepG2 cell viability assay in 384 well format
- Format: toxicity, cell-based
- Set-up: dose 125 nL, time 70.5 hour; concentration not given beside the values
- setupConditions: HepG2 cells, read-out: Inhibition
Catalogue of compounds with associated cytotoxicity at 70.5 h
Give the value in % but do not write % after it.

Reference set, count: 4
[
  {
    "compound": "Cc1ccc(NCCCNC(=O)NCC2CCS(=O)(=O)C2)nc1 (stereo unspecified)",
    "assayValue": -17.4
  },
  {
    "compound": "CC(=O)NCc1ccc(C(=O)N2CCCC2c2cnn(C)c2)cc1 (stereo unspecified)",
    "assayValue": -6.89
  },
  {
    "compound": "Cc1ccsc1C(=O)N1CCCC(c2[nH]ncc2S(C)(=O)=O)C1 (stereo unspecified)",
    "assayValue": -6.4
  },
  {
    "compound": "COc1ccc(C(C)NS(=O)(=O)c2ccc3c(c2)CCC(=O)N3)cc1F (stereo unspecified)",
    "assayValue": 12.7
  }
]

Exercise: Which cytotoxicity at 70.5 h reading was recorded for the compound `CNC(=O)[C@@H]1C[C@H](n2cc(-c3ccc(CN4CC=CC4)cc3)nn2)CN1` ?
Key: 27

Exercise: Could you do the same for O=C(C1CCCC1)N1CC2(CCCN(C3COC3)C2)Cc2ccccc21 (stereo unspecified) , please?
Key: -15.4

Exercise: Could you do the same for CC1CCCCN1c1nc2c(c(=O)[nH]1)CCN(Cc1ccccc1F)C2 (stereo unspecified) , please?
Key: -5.68

Exercise: Could you do the same for `CC(C)c1cc(-c2nn3c(C(C)C)nnc3s2)[nH]n1` , please?
Key: -11.4
